subject_of_test: UniProt:Q13882
Sequence (Q13882 whole entry): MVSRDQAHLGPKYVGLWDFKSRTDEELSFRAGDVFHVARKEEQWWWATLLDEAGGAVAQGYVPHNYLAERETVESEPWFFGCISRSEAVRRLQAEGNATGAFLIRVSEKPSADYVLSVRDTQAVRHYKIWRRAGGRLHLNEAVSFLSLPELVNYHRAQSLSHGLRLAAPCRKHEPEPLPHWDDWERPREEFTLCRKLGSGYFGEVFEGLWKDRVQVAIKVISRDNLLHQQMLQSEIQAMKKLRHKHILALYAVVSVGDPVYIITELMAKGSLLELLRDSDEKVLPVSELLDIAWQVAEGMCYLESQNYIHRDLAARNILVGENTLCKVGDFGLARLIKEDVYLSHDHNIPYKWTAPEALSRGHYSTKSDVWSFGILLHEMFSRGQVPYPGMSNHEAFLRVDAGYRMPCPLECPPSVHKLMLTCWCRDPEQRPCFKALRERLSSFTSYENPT
experiment_description: Inhibition of GST-tagged PTK6 (unknown origin) assessed as phosphorylated tyrosines after 20 mins by ELISA
pIC50: −log10 of the molar value.
Consider the following compounds and their measured pIC50 readings.
property_label: pIC50

| structure_smiles_string | comparator | reported_value |
| --- | --- | --- |
| O=c1[nH]c2ccc(/N=C/c3ccccc3)cc2[nH]1 | < | 5.00 |
| CCOc1cc(Br)c(Br)c(/C=N/c2ccc3[nH]c(=O)[nH]c3c2)c1O | = | 6.28 |
| COc1ccc(/C=N/c2ccc3[nH]c(=O)[nH]c3c2)c(O)c1 | < | 5.00 |
| COc1cc(Br)c(Br)c(/C=N/c2ccc3[nH]cnc3c2)c1O | = | 6.70 |
| O=c1[nH]c2ccc(/N=C/c3cc(Br)cc(Br)c3O)cc2[nH]1 | = | 5.25 |
| O=c1[nH]c2ccc(/N=C/c3ccccc3O)cc2[nH]1 | = | 5.70 |
| N#C/C(=C\c1c[nH]c2ccccc12)C(=O)c1ccc(O)c(O)c1 | = | 5.63 |
| O=c1[nH]c2ccc(/N=C/c3cc(Br)ccc3O)cc2[nH]1 | = | 5.72 |
| CCOc1cc(Br)cc(/C=N/c2ccc3[nH]c(=O)[nH]c3c2)c1O | = | 5.23 |
| COc1cccc(/C=N/c2ccc3[nH]c(=O)[nH]c3c2)c1O | < | 5.00 |
| COc1cc(I)cc(/C=N/c2ccc3[nH]c(=O)[nH]c3c2)c1O | = | 5.30 |
| COc1ccc(Br)cc1/C=N/c1ccc2[nH]c(=O)[nH]c2c1 | = | 4.77 |
| COc1cc(Br)c(Br)c(/C=N/c2ccc3scnc3c2)c1O | = | 5.89 |
| COc1cc(Br)cc(/C=N/c2ccc3[nH]c(=O)[nH]c3c2)c1OC | < | 5.00 |
| CCOc1cc(Br)c(Br)c(CNc2ccc3[nH]c(=O)[nH]c3c2)c1O | = | 5.32 |
| O=c1[nH]c2ccc(/N=C/c3c(O)cccc3Br)cc2[nH]1 | = | 5.87 |
| CCOc1cccc(/C=N/c2ccc3[nH]c(=O)[nH]c3c2)c1O | < | 5.00 |
| COc1cc(Br)cc(/C=N/c2ccc3[nH]c(=O)[nH]c3c2)c1O | = | 5.33 |
| COc1cc(Br)c(Br)c(/C=N/c2ccc3[nH]ccc3c2)c1O | = | 6.57 |
| O=c1[nH]c2ccc(/N=C/c3ccc(O)cc3O)cc2[nH]1 | < | 5.00 |
| COc1cc(Br)c(Br)c(CNc2ccc3[nH]c(=O)[nH]c3c2)c1O | < | 5.00 |
| COc1cc(Cl)cc(/C=N/c2ccc3[nH]c(=O)[nH]c3c2)c1O | = | 5.77 |
| CCOc1cc(Br)c(Br)c(/C=N/c2ccc3scnc3c2)c1O | = | 5.93 |

----------
subject_of_test: Tyrosine-protein kinase Fyn (Homo sapiens, UniProt P06241)
Sequence (P06241 whole entry): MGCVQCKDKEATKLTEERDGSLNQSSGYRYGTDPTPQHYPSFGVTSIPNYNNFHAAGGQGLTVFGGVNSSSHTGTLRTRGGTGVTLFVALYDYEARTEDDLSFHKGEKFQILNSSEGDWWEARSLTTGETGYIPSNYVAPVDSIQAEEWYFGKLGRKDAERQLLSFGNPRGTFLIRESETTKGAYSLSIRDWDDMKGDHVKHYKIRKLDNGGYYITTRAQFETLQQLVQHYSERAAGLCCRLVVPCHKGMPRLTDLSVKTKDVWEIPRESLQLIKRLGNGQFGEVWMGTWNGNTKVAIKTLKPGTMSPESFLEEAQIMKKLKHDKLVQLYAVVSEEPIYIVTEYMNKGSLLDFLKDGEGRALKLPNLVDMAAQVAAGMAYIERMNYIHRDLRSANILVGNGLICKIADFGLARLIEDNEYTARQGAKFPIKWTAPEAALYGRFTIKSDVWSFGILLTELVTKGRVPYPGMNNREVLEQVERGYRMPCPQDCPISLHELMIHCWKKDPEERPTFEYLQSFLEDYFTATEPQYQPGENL
experiment_description: Inhibition of Fyn (unknown origin) expressed in HEK293 cells assessed as decrease in phosphorylation by chemiluminescence assay
Format: cell-based
pIC50: −log10 of the molar value.

| structure_smiles_string | pIC50 |
| --- | --- |
| COc1cc(Br)c(Br)c(/C=N/c2ccc3[nH]c(=O)[nH]c3c2)c1O | 4.41 |
| CCOc1cc(Br)c(Br)c(/C=N/c2ccc3[nH]c(=O)[nH]c3c2)c1O | 4.16 |
| O=c1c(-c2ccc(O)cc2)coc2cc(O)cc(O)c12 | 4.24 |

Sourced from ChEMBL document CHEMBL3352553
